molecular target: GST-Bcl-B (Homo sapiens, UniProt Q9HD36); test: Bcl-B/FITC-TR3-r8 fluorescence polarization competition (displacement) assay, HTS and dose-response; details: Table 8, NCI Structural library; Binding Assay, FP; Concentration 0.02 uM
Sequence (Q9HD36 1-182 limits assumed): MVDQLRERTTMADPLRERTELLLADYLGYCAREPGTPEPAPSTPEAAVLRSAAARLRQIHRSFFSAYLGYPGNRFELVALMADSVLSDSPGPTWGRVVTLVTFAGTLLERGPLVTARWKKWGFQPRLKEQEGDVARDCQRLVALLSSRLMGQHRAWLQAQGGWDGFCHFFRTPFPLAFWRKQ
QUANTITY_NAME: Is Hit

In [3]: df
Out[3]:
                                   compound  measured_value
0  O=C(O)CCc1c2ccc(=O)c(O)c-2oc2c(O)c(O)ccc12 [Compound 119915]             Yes
1  Cc1ccc(/N=N/c2c(O)ccc3cc(S(=O)(=O)O)ccc23)cc1 [Compound 7814]             Yes
2  Nc1ccc(/N=N/c2ccc(-c3ccc(O)cc3)cc2)c2ccc(S(=O)(=O)O)cc12 [Compound 65528]             Yes
3  Nc1c(S(=O)(=O)O)cc(Nc2cccc(S(N)(=O)=O)c2)c2c1C(=O)c1ccccc1C2=O [Compound 117079]             Yes

###

Overview of reported % Activity across a group of compounds:
molecular target: GST-Bfl-1 (Homo sapiens); construct: lacking their C-terminal transmembrane domains (about the last 20 amino acids) (“ΔTM”); made in house; host or cells: XL-1 Blue E. coli, pGEX 4T-1; test: Bfl-1/FITC-Bid BH3 competitive fluorescence polarization assay; assay type: binding; conditions: primary HTS hits, MLSCN library (PubChem SIDs), Table 5B
Sequence (Q16548 1-155 limits assumed): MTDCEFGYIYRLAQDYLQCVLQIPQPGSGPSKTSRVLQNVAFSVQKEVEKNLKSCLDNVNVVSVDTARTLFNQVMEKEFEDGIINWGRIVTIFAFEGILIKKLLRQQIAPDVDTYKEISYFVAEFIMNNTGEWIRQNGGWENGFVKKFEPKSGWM
Expressed in %, but write only the number.

Examples from the recorded data:
                                   compound  quantity_name  measured_value
0  Cc1nc(NC(=O)c2ccco2)sc1-c1csc(Nc2ccc(Cl)cc2Cl)n1     % Activity            54.4
1  CCn1c(CSc2nc3ccccc3s2)nnc1SCC(=O)c1ccc(O)c(O)c1     % Activity            74.1
2              Cc1ccc(C)n1-c1cccc(C(=O)O)c1     % Activity            95.8
3            COc1ccc(NC(=O)c2noc3c2CCC3)cc1     % Activity           102.1
4  CC1CC(C)CN(C(=O)c2ccc3c(c2NCCO)C(=O)c2ccccc2C3=O)C1 (stereo not drawn)     % Activity            83.7

Lab note: next compound to report on.
What measured % Activity goes with "CC(=N)/C(C#N)=C(/O)CSc1nnc(Nc2c(C)cccc2C)s1" ?
63.1

###

target: GST-Bcl-B (Homo sapiens, UniProt Q9HD36); assay: Bcl-B/FITC-TR3-r8 fluorescence polarization competition (displacement) assay, HTS and dose-response; details: Table 7, NCI Mechanistic library; Binding Assay, FP; Concentration 0.02 uM
QUANTITY_NAME: Is Hit

Use these answered entries as a reference point.
COMPOUND	TESTED_TARGET	MEASURED_VALUE
O=S(=O)(O)c1cc(/N=N/c2cc(S(=O)(=O)O)c3ccccc3c2O)ccc1/C=C/c1ccc(/N=N/c2cc(S(=O)(=O)O)c3ccccc3c2O)cc1S(=O)(=O)O [Compound 34931]	GST-Bcl-B (Homo sapiens, UniProt Q9HD36)	Yes
Cc1cc2c(C(C)C)c(O)c(O)c(C=O)c2c(O)c1-c1c(C)cc2c(C(C)C)c(O)c(O)c(C=O)c2c1O [Compound 56817]	GST-Bcl-B (Homo sapiens, UniProt Q9HD36)	Yes
CN(C)c1ccc(/C=c2\c3n(c4ccccc24)N(C)C(c2ccc(Cl)cc2)C=3)cc1.O=S(=O)(O)C(F)(F)F (centres unmarked) [Compound 699479]	GST-Bcl-B (Homo sapiens, UniProt Q9HD36)	Yes
CN(C)CCN1C(=O)c2cccc3cc(N)cc(c23)C1=O [Compound 308847]	GST-Bcl-B (Homo sapiens, UniProt Q9HD36)	Yes
CCN(CCO)CCNc1ccc(C)c2sc3ccccc3c(=O)c12 [Compound 20534]	GST-Bcl-B (Homo sapiens, UniProt Q9HD36)	Yes

Please give the measured Is Hit for this compound: Nc1ccc2c(c1)CN1C(=O)c3ccccc3C1=N2 [Compound 320846]
Yes

Continue with O=[N+]([O-])c1ccc2c(/N=N/c3c(O)ccc4ccccc34)c(O)cc(S(=O)(=O)O)c2c1 [Compound 73413]
Yes

Next compound: [O-][n+]1c2c([n+]([O-])c3ccccc31)-c1cccc3cccc-2c13 [Compound 60309]
Yes
